Assignment: determine reported IC50 for the given molecules.
molecular target: ClbP (Escherichia coli, UniProt Q0P7K6); experiment: ClbP cell lysate activity (inhibition) assay, fluorogenic substrate; type: biochemical; conditions: ClbP Lysate Inhibition Assay: IC50, E. coli ClbP+ lysozyme-EDTA lysates, 5 μM fluorogenic substrate, inhibitor 0-300 μM, 37° C., singlicate

Illustrative cases are given below, each with its answer.
# Molecule, Value Type, Recorded Measurement
records = [
    ("NC(=O)C[C@@H](NC(=O)CCCC1CCCCCC1)C(=O)NCCc1ccccc1", "IC50", "< 100 µM"),
    ("CCCCCCCC(=O)N[C@H](CC(N)=O)C(=O)NCCn1cccn1", "IC50", "< 100 µM"),
    ("CCCCCCCC(=O)N[C@H](CC(N)=O)c1nnc(CCc2ccccc2)o1", "IC50", "> 300 µM"),
    ("NC(=O)C[C@@H](NC(=O)CCCC1CCCCCC1)C(=O)NCCc1ccc(O)cc1", "IC50", "< 100 µM"),
    ("CCCCCCCC(=O)N[C@H](CC(=O)NOC)C(=O)NCCc1ccc(O)cc1", "IC50", "100 to 300 µM"),
]

For every record below, what is its IC50?
1. CCCCCCCC(=O)N[C@H](CC(N)=O)C(=O)N[C@H](C)Cc1ccc(O)cc1
2. CCCCCCCC(=O)N[C@H](CC(N)=O)C(=O)NCCc1ccc(OC)cc1

["< 100 µM", "< 100 µM"]

---

target: ClbP (Escherichia coli, UniProt Q0P7K6); test: ClbP cell lysate activity (inhibition) assay, fluorogenic substrate; type: biochemical; conditions: ClbP Lysate Inhibition Assay: IC50, E. coli ClbP+ lysozyme-EDTA lysates, 5 μM fluorogenic substrate, inhibitor 0-300 μM, 37° C., singlicate
pIC50: −log10 of the molar value.
Value Type: pIC50

Illustrative cases are given below, each with its answer.
# Molecule, Recorded Measurement
records = [
    ("CCCCCC(=O)N[C@H](CC(N)=O)C(=O)NCCc1ccc(C(F)(F)F)cc1 [Compound CCLXXV]", "< 3.52"),
    ("CCCC(=O)N[C@H](CC(N)=O)C(=O)NCCc1ccccc1", "< 3.52"),
    ("NC(=O)C[C@@H](NC(=O)CCCCCCCCC(F)(F)F)C(=O)NCCc1ccc(O)cc1", "> 4.00"),
    ("O=C(/C=C/CC1CCCCC1)N[C@H](CC(=O)NO)C(=O)NCCc1ccc(O)cc1", "> 4.00"),
    ("CCCCCCCC(=O)N[C@H](CC(N)=O)c1ncnn1Cc1ccccc1", "< 3.52"),
]

For every record below, what is its pIC50?
1. NC(=O)C[C@@H](NC(=O)CCCC1CCCCC1)C(=O)NCCc1ccccn1
2. CCCCCCCC(=O)N[C@H](CC(N)=O)C(=O)c1nccn1Cc1ccccc1
3. NC(=O)C[C@@H](NC(=O)CCC1CCCC1)C(=O)NCCc1ccccc1

1: > 4.00; 2: < 3.52; 3: > 4.00

---

molecular target: ClbP (Escherichia coli); assay: ClbP cell lysate activity (inhibition) assay, fluorogenic substrate; type: biochemical; conditions: ClbP Lysate Inhibition Assay: IC50, E. coli ClbP+ lysozyme-EDTA lysates, 5 μM fluorogenic substrate, inhibitor 0-300 μM, 37° C., singlicate
pIC50: −log10 of the molar value.
Assignment: determine reported pIC50 for the given compounds.

Illustrative cases are given below, each with its answer.
# Compound, pIC50
measured = [
    ("CCCCCCCC(=O)N[C@H](CC(N)=O)C(=O)NCCc1cccc(O)c1 [Compound CCXXIII]", "> 4.00"),
    ("CCCCCCCC(=O)N[C@H](CC(=O)NC)C(=O)NCCc1ccccc1 [Compound CCXVI]", "3.52 to 4.00"),
    ("NC(=O)C[C@@H](NC(=O)CCCC1CCCC1)C(=O)NCCc1ccccc1 [Compound CCLXIII]", "> 4.00"),
    ("CCCCCCCC(=O)N[C@H](CC(N)=O)C(=O)NCCc1cccc(OC)c1 [Compound CCXLVIII]", "> 4.00"),
    ("CCCCCCCC(=O)N[C@H](CC(N)=O)C(=O)NCCc1cc(F)c(O)c(F)c1 [Compound CCLVI]", "> 4.00"),
    ("O=C(C[C@@H](NC(=O)CCC1CCCCC1)C(=O)NCCc1ccc(O)cc1)NO [Compound CCXCV]", "> 4.00"),
    ("CCCCCCCC(=O)N[C@H](CC(N)=O)C(=O)NCCn1cnnc1 [Compound CCXXXIV]", "< 3.52"),
    ("CCCCCCCC(=O)N[C@H](CC(N)=O)C(=O)NCCc1ccccn1 [Compound CCV]", "> 4.00"),
]

For every record below, what is its pIC50?
1. CCCCCCCC(=O)N[C@H](CC(N)=O)C(=O)NCCC1CCN(C)CC1 [Compound CCXIX]
2. NC(=O)C[C@@H](NC(=O)CCC1CCCCC1)C(=O)NCCc1ccccc1 [Compound CCXLIII]
3. CCCCCCCC(=O)N[C@H](CC(N)=O)[C@@H](O)CCCc1ccccc1 [Compound CXCI]
4. CCCCCC(=O)N[C@H](CC(N)=O)C(=O)NCCc1ccccc1 [Compound CCLXVII]
5. CCCCCCCC(=O)N[C@H](CC(N)=O)C(=O)NCCc1ccsc1 [Compound CCVI]
6. CCCCCCCCCCCC(=O)N[C@H](CC(N)=O)C(=O)NCCc1ccccn1 [Compound CCCX]
7. CCCCCCCNC(=O)[C@H](CC(N)=O)NC(=O)OCC [Compound XCIX]
8. NC(=O)C[C@@H](NC(=O)/C=C/CC1CCCC1)C(=O)NCCc1ccccc1 [Compound CCLXII]

["3.52 to 4.00", "> 4.00", "3.52 to 4.00", "3.52 to 4.00", "> 4.00", "> 4.00", "< 3.52", "< 3.52"]

For every record below, what is its pIC50?
1. CCCCCCCC(=O)N[C@H](CC(N)=O)C(=O)NCCN1CCNCC1 [Compound CCXX]
2. NC(=O)C[C@@H](NC(=O)CC1CCCCC1)C(=O)NCCc1ccccc1 [Compound CCLXXI]
3. CCCCCCCC(=O)N[C@H](CC(N)=O)C(=O)c1nccn1C [Compound CCLVII]
4. CN1CCC(CCCC(=O)N[C@H](CC(N)=O)C(=O)NCCc2ccc(O)cc2)CC1 [Compound CCCVIII]
5. NC(=O)C[C@@H](NC(=O)CCCc1ccncc1)C(=O)NCCc1ccc(O)cc1 [Compound CCLI]
6. CCCCCCC(C)(C)C(=O)N[C@@H](CNCCc1ccccc1)CC(N)=O [Compound CCXII]
7. NC(=O)C[C@@H](NC(=O)/C=C/CC1CCCCCC1)C(=O)NCCc1ccc(O)cc1 [Compound CCXL]
8. NC(=O)C[C@@H](NC(=O)CCCC1CCCCC1)C(=O)NCCc1ccccc1 [Compound CCLXX]

1: > 4.00; 2: < 3.52; 3: < 3.52; 4: < 3.52; 5: 3.52 to 4.00; 6: < 3.52; 7: > 4.00; 8: > 4.00

For every record below, what is its pIC50?
1. O=C(/C=C/CC1CCCC1)N[C@H](CC(=O)NO)C(=O)NCCc1ccc(O)cc1 [Compound CCXCVIII]
2. CCCCCCCC(=O)N[C@H](CC(N)=O)C(=O)NCCc1nnn[nH]1 [Compound CCXXXIII]
3. CCCCCCCC(=O)N[C@H](CC(N)=O)C(=O)N[C@H](C)Cc1ccccc1 [Compound CCIII]
4. CCCCCCCC(=O)N[C@H](CC(N)=O)C(=O)NCCc1ccc(C(=O)O)cc1 [Compound CXCVIII]
5. CCCCCCCC(=O)N[C@H](CC(N)=O)C(=O)NCCc1ccc(C)cc1 [Compound CXCVI]
6. O=C(C[C@@H](NC(=O)CCCC1CCCCC1)C(=O)NCCc1ccc(O)cc1)NO [Compound CCXCVI]
7. CCCCCCCC(=O)N[C@H](CC(N)=O)c1nc2ccccc2[nH]1 [Compound CCVII]
8. CCCCCCC(F)(F)C(=O)N[C@H](CC(N)=O)C(=O)NCCc1ccc(O)cc1 [Compound CCXXXVI]

1: > 4.00; 2: > 4.00; 3: > 4.00; 4: 3.52 to 4.00; 5: > 4.00; 6: > 4.00; 7: < 3.52; 8: > 4.00

For every record below, what is its pIC50?
1. CCCCCCCC(=O)N[C@@H](CNC(C)(C)C)CC(N)=O [Compound VIII]
2. CCCCCCCC(=O)N[C@H](CC(N)=O)C(=O)NCCc1c(F)cc(O)cc1F [Compound CCCVI]

> 4.00
> 4.00

---

Assignment: determine reported pIC50 for the given compounds.
target: ClbP (Escherichia coli, UniProt Q0P7K6); assay: ClbP whole cell activity (inhibition) assay, fluorogenic substrate; format: cell-based, E. coli
pIC50: −log10 of the molar value.

# Compound, Test System, pIC50
rows = [
    ("CN(CCCCCC(=O)N[C@H](CC(N)=O)C(=O)NCCc1ccc(O)cc1)Cc1ccccc1 [Compound CCXCI]", "ClbP (Escherichia coli, UniProt Q0P7K6)", "> 4.00"),
    ("CCCCCCCCCCCC(=O)N[C@H](CC(N)=O)C(=O)NCCc1ccccn1 [Compound CCCX]", "ClbP (Escherichia coli, UniProt Q0P7K6)", "< 3.52"),
]

For every record below, what is its pIC50?
1. CCCCCC(=O)N[C@H](CC(N)=O)C(=O)NCCc1ccc(C(F)(F)F)cc1 [Compound CCLXXV]
2. NC(=O)C[C@@H](NC(=O)/C=C/CC1CCCCCC1)C(=O)NCCc1ccccc1 [Compound CCXXXVIII]
3. CCCCCCCC(=O)N[C@@H](CNC(C)(C)C)CC(N)=O [Compound VIII]

< 3.52
> 4.00
> 4.00

For every record below, what is its pIC50?
1. CCCCCCCC(=O)N[C@H](CC(N)=O)C(=O)NCCN1CCNCC1 [Compound CCXX]
2. CCCCCCCC(=O)N[C@H](CC(N)=O)C(=O)NC[C@H](C)c1ccccc1 [Compound CCCI]
3. CCCCCCCC(=O)N[C@H](CC(N)=O)C(=O)NCCc1ccc(C(=O)O)cc1 [Compound CXCVIII]
4. CCCCCCCC(=O)N[C@H](CC(N)=O)C(=O)NCCC1CCN(C)CC1 [Compound CCXIX]
5. O=C(C[C@@H](NC(=O)CCCC1CCCC1)C(=O)NCCc1ccc(O)cc1)NO [Compound CCXCIX]
6. CCCCCCCC(=O)N[C@H](CC(N)=O)C(=O)NCc1ccccc1 [Compound CCI]
7. CNCCCCCC(=O)N[C@H](CC(N)=O)C(=O)NCCc1ccc(O)cc1 [Compound CCC]

1. > 4.00
2. > 4.00
3. > 4.00
4. > 4.00
5. > 4.00
6. > 4.00
7. < 3.52

For every record below, what is its pIC50?
1. CCCCCCCCCC(=O)N[C@@H]1CC(=O)NC1(O)C(=O)NCc1ccccc1 (stereo partly shown) [Compound […]]
2. CCCCCC(=O)N[C@H](CC(N)=O)C(=O)NCCc1ccccc1 [Compound CCLXVII]
3. O=C(C[C@@H](NC(=O)CCCC1CCCCC1)C(=O)NCCc1ccc(O)cc1)NO [Compound CCXCVI]
4. CCCCCCCCCCCC(=O)N[C@H](CC(N)=O)C(=O)NCCc1ccc(O)cc1 [Compound CCCVII]
5. CCCCCCCC(=O)N[C@H](CC(N)=O)C(=O)NCCc1cccc(O)c1 [Compound CCXXIII]
6. CCCCCCCC(=O)N[C@H](CC(N)=O)C(=O)NCCN1CCN(C)CC1 [Compound CXC]
7. NC(=O)C[C@@H](NC(=O)CCCC1CCCC1)C(=O)NCCc1ccccc1 [Compound CCLXIII]
8. CCCCCCCC(=O)N[C@H](CC(N)=O)[C@H](O)CCCc1ccccc1 [Compound CXCII]

1. 3.52 to 4.00
2. > 4.00
3. > 4.00
4. > 4.00
5. > 4.00
6. < 3.52
7. > 4.00
8. < 3.52

For every record below, what is its pIC50?
1. CCCCCCCC(=O)N[C@H](CC(N)=O)C(=O)NCCOc1ccccc1 [Compound CCLIV]
2. CCCCCCCC(=O)N[C@H](CC(N)=O)C(=O)NCCc1nnn[nH]1 [Compound CCXXXIII]
3. NC(=O)C[C@@H](NC(=O)CCCc1ccncc1)C(=O)NCCc1ccc(O)cc1 [Compound CCLI]
4. CCCCCCCC(=O)N[C@H](CC(N)=O)C(=O)NCCc1c[nH]cn1 [Compound CCXXVII]
5. NC(=O)C[C@@H](NC(=O)CCCCC(F)(F)F)C(=O)NCCc1ccc(O)cc1 [Compound CCXCII]
6. CCCCCCCNC(=O)[C@H](CC(N)=O)NC(=O)OCC [Compound XCIX]
7. CCCC(=O)N[C@H](CC(N)=O)C(=O)NCCc1ccccc1 [Compound CCLXVIII]
8. CCCCCCCC(=O)N[C@H](CC(N)=O)C(=O)NCCc1c(F)cc(O)cc1F [Compound CCCVI]

1. > 4.00
2. > 4.00
3. > 4.00
4. > 4.00
5. > 4.00
6. < 3.52
7. > 4.00
8. > 4.00

The reported numbers originate from patent US20230234917A1.
